Every entry's value here was drawn from PubChem BioAssay AID2057.

Biological target: Induced myeloid leukemia cell differentiation protein Mcl-1 (Homo sapiens) (UniProt Q07820)
Sequence (Q07820 whole entry, looked up): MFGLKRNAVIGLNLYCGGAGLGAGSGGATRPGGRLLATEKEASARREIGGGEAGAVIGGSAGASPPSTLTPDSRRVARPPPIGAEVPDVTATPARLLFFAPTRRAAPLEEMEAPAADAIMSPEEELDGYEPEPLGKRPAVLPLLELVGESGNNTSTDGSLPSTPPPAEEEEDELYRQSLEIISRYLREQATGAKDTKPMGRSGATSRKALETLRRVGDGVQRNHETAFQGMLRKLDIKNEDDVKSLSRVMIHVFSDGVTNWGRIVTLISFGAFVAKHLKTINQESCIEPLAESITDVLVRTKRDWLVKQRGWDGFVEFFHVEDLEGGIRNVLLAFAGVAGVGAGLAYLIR
Assay: MCL1-BIM peptide interaction disruptors – biochemical, fluorescence polarization, primary screen (AID 2057);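 also: 0% = DMSO wells and 100% = unlabeled Bim-BH3 peptide control; higher means more loss of mP so more displacement of Bim peptide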
Settings: GST-MCL1 / FITC-Bim-BH3 fluorescence polarization; at 10.9 µM; active compounds read high
Hit rate of the full screen: of about 320,000 compounds, about 2,100 (0.66%) were called active. Many of the other results were omitted from the sample, so actives are more common in it than they were.
result.type: inhibition (%)

* C=CCc1ccccc1OCC(=O)N/N=C/c1ccccc1OCC | -1.1
* CC1CCN(C(=O)c2ccccc2NC(=O)Cc2ccccc2)CC1 | 2.82
* CCOC(=O)N1CCN(Cc2nnc(-c3ccccc3Cl)o2)CC1 | 2.02
* Cc1cccn2c(=O)c3cc(C#N)c(=O)n(CCCN4CCOCC4)c3nc12 | 23.2
* COC(=O)CCCCCN1C(=O)NC(c2ccc(-c3ccccc3)cc2)C(C(=O)OCc2ccccc2)=C1C (configuration not stated) | 6.48
* O=C(CSc1ccccc1)Nc1cccc(S(=O)(=O)N2CCCCC2)c1 | -3.17
* Cc1cc(C)n2nc(C(=O)Oc3ccc4c(c3)OCO4)nc2n1 | 3.36
* Cn1c(Nc2ccccc2)cc(=O)n(C)c1=O | -3.95
* CCN(CC(=O)NCC(=O)Nc1cccc(C)c1C)Cc1ccccc1 | -6.88
* O=C(COC(=O)/C=C/c1ccc(S(=O)(=O)N2CCCCCC2)cc1)NCc1ccccc1Cl | 5.88
* O=C(NCCC1CCCCN1S(=O)(=O)c1ccc(Cl)cc1)C(=O)NCc1ccco1 (configuration not stated) | 9.57
* Cc1ccc(/C=N/NC(=O)COc2ccccc2-c2ccccc2)cc1 | 66.9
* COc1ccc(C2=CC(c3cccc(OC)c3)n3nnnc3N2)cc1 (configuration not stated) | 37.5
* Cc1cc(O)c(Sc2ccccc2)c(=O)o1 | 2.06
* COc1ccc(CNC(=O)c2cc3c(=O)n4ccccc4nc3n(CC3CCCO3)c2=N)cc1 (configuration not stated) | 9.61
* CCOc1ccc(N2CC(C(=O)NCCN3C(=O)S/C(=C\c4cccnc4)C3=O)CC2=O)cc1 (configuration not stated) | -2.41
* O=C(CNC(=O)c1ccc(F)cc1)c1ccccc1 | -5.56
* O=C(NC(=S)Nc1ccc(S(=O)(=O)N2CCOCC2)cc1)c1ccccc1[N+](=O)[O-] | 14.4
* COC(=O)c1sc(C(F)(F)F)c(-c2ccccc2)c1S(=O)(=O)N(C)C | 4.01
* O=C(N/N=C/c1cc(Cl)cc([N+](=O)[O-])c1O)C(O)(c1ccccc1)c1ccccc1 | 9.22
* COc1ccc(C2CC(c3ccc(C)cc3)Nc3nc(N)nn32)cc1 (configuration not stated) | -0.86
* Cc1cccc(OCC(=O)NCC(=O)N/N=C/c2ccc(N(C)C)cc2)c1 | 5.85
